Molecular target: T1, HLA-DRB1*1302 (human)
T1 construct: purified MHC class II molecule; also called DR6w19
Test: competition with 125I-labelled standard peptide, purified HLA-DR, gel filtration
endpoint_name: IC50 (µM)

| binder | numeric_readout |
| --- | --- |
| DEAYVMAGVGSPYVS [Her2/neu.769] | 1.75 |
